Please provide measured MIC for the entries that follow.
Test system: Pseudomonas aeruginosa
ASSAY DETAILS: Antibacterial activity against Pseudomonas aeruginosa clinical isolate AG032
Assay type: functional
Answers are plain numbers, in µg/mL.

COMPOUND	ENDPOINT VALUE
CCN[C@@H]1C[C@H](N)[C@@H](O[C@H]2OC(CN)=C(SCC)C[C@H]2N)[C@H](O)[C@H]1O[C@H]1OC[C@](C)(O)[C@H](NC)[C@H]1O	128

// for each compound in input: emit MIC
1. CCN[C@@H]1C[C@H](N)[C@@H](O[C@H]2OC(CN)=CC[C@H]2N)[C@H](O)[C@H]1O[C@H]1OC[C@](C)(O)[C@H](NC)[C@H]1O [NETILMICIN]
2. CCN[C@@H]1C[C@H](N)[C@@H](O[C@H]2OC(CN)=C(Br)C[C@H]2N)[C@H](O)[C@H]1O[C@H]1OC[C@](C)(O)[C@H](NC)[C@H]1O
3. CCCCC1=C(CN)O[C@H](O[C@H]2[C@H](O)[C@@H](O[C@H]3OC[C@](C)(O)[C@H](NC)[C@H]3O)[C@H](NCC)C[C@@H]2N)[C@H](N)C1
4. CCN[C@@H]1C[C@H](N)[C@@H](O[C@H]2OC(CN)=C(Cl)C[C@H]2N)[C@H](O)[C@H]1O[C@H]1OC[C@](C)(O)[C@H](NC)[C@H]1O

Reply:
2
8
64
64
